B1: PDS5B (parent)
chain: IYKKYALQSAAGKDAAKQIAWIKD

variants of: B1; assay: protein stability index of a GFP-peptide fusion (GPS, HEK-293T) (PSI 1-6); higher = more stable; conditions: c terminus: a fixed tail appended;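 note: lentivirally expressed fusions sorted by FACS into six bins by GFP to DsRed ratio, PSI derived from sequencing read proportions per bin multiplied by bin number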
Please note: T applies when protein stability index is 2 or greater, and F applies otherwise.

VARIANT_ID: W21L
CLASS_ASSIGNMENT: T
--
VARIANT_ID: A16R
CLASS_ASSIGNMENT: T
--
VARIANT_ID: D24T
CLASS_ASSIGNMENT: F
--
VARIANT_ID: Q18M
CLASS_ASSIGNMENT: T
--
VARIANT_ID: D14K
CLASS_ASSIGNMENT: T
--
VARIANT_ID: I1E
CLASS_ASSIGNMENT: T
--
VARIANT_ID: I22Y
CLASS_ASSIGNMENT: T
--
VARIANT_ID: K3Q
CLASS_ASSIGNMENT: T
--
VARIANT_ID: L7T
CLASS_ASSIGNMENT: T
--
VARIANT_ID: A11L
CLASS_ASSIGNMENT: F
--
VARIANT_ID: K3H
CLASS_ASSIGNMENT: T
--
VARIANT_ID: W21S
CLASS_ASSIGNMENT: T
--
VARIANT_ID: A10G
CLASS_ASSIGNMENT: F
--
VARIANT_ID: K13I
CLASS_ASSIGNMENT: T
--
VARIANT_ID: Y5H
CLASS_ASSIGNMENT: T
--
VARIANT_ID: A10Y
CLASS_ASSIGNMENT: F
--
VARIANT_ID: W21G
CLASS_ASSIGNMENT: T
--
VARIANT_ID: K3D
CLASS_ASSIGNMENT: T
--
VARIANT_ID: A15I
CLASS_ASSIGNMENT: F
--
VARIANT_ID: K23N
CLASS_ASSIGNMENT: T
--
VARIANT_ID: A10W
CLASS_ASSIGNMENT: F
--
VARIANT_ID: A6N
CLASS_ASSIGNMENT: T
